System: Pseudomonas aeruginosa E-2
Assay: Antibacterial activity (MIC), P. aeruginosa E-2
Type: cell-based
Conditions: E2; Pseudomonas aeruginosa E-2, Gram -; read-out: Minimum inhibitory concentration (MIC)
Where a name gives a salt, the structure may show the parent alone.
measuredAttribute: MIC (µg/mL)
Quick note: give the figure in µg/mL, leave out the unit.

{"compound": "CN1Cc2csc3c(C(=O)O)c(=O)c4cc(F)c(N5CCC(O)C5)c1c4n23 (stereo not drawn) [Compound (G)]", "targetDesc": "Pseudomonas aeruginosa E-2", "unitText": "µg/mL", "MIC": 0.78}
{"compound": "CN1Cc2csc3c(C(=O)O)c(=O)c4cc(F)c(N5CCNCC5)c1c4n23 [Compound (C)]", "targetDesc": "Pseudomonas aeruginosa E-2", "unitText": "µg/mL", "MIC": 0.39}
{"compound": "CC1CN(c2c(F)cc3c(=O)c(C(=O)O)c4scc5n4c3c2N(C)C5)CCN1 (stereo not drawn) [Compound (D)]", "targetDesc": "Pseudomonas aeruginosa E-2", "unitText": "µg/mL", "MIC": 0.78}
{"compound": "CC1CN(c2c(F)cc3c(=O)c(C(=O)O)c4scc5n4c3c2N(C)C5)CC(C)N1 (stereo not drawn) [Compound (E)]", "targetDesc": "Pseudomonas aeruginosa E-2", "unitText": "µg/mL", "MIC": 1.56}
{"compound": "CN1Cc2csc3c(C(=O)O)c(=O)c4cc(F)c(N5CCOCC5)c1c4n23 [Compound (I)]", "targetDesc": "Pseudomonas aeruginosa E-2", "unitText": "µg/mL", "MIC": 0.39}

I'm curious: which MIC was measured for CN1CCN(c2c(F)cc3c(=O)c(C(=O)O)c4scc5n4c3c2OC5)CC1 [Compound (Y), hydrochloride, reference compound] tested on Pseudomonas aeruginosa E-2?
0.78

Now try CCNCC1CCN(c2c(F)cc3c(=O)c(C(=O)O)c4scc5n4c3c2N(C)C5)C1 (stereo not drawn) [Compound (M), hydrochloride] .
1.56

Now try CNCC1CCN(c2c(F)cc3c(=O)c(C(=O)O)c4scc5n4c3c2N(C)C5)C1 (stereo not drawn) [Compound (N), hydrochloride] .
0.78

Next compound: CC1CN(c2c(F)cc3c(=O)c(C(=O)O)c4scc5n4c3c2N(C)C5)CC(C)N1C (stereo not drawn) [Compound (P)]
1.56

Also need CN1Cc2csc3c(C(=O)O)c(=O)c4cc(F)c(N5CCC(N)C5)c1c4n23 (stereo not drawn) [(H)] , thanks.
0.39

Try this compound too: CC1CN(c2c(F)cc3c(=O)c(C(=O)O)c4scc5n4c3c2N(C)C5)CCN1C (stereo not drawn) [Compound (O)]
0.78

Moving on to CN1Cc2csc3c(C(=O)O)c(=O)c4cc(F)c(N5CCCC5)c1c4n23 [Compound (F)]
0.39
